- measurement_target: T1, hMC5-R (human, UniProt P33032 1-325)
- T1 construct: whole, on cells; Assayed as membranes of CHO-K1 cells expressing the receptor; also called hMC-R receptor subtype 5; melanocortin-5 receptor (MC5-R)
- T1 sequence (P33032 whole entry): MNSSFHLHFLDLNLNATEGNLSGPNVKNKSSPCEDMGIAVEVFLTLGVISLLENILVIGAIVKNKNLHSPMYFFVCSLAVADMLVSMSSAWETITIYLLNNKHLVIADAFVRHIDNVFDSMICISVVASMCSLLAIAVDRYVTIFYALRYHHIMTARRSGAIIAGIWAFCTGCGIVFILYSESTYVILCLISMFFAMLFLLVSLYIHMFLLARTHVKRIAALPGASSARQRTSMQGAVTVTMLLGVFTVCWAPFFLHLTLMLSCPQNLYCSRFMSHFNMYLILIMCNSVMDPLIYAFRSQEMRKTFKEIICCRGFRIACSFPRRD
- test_summary: competition with [125I]-NDP-α-MSH, CHO-K1 membranes
- Experimental: Cellular membranes used for the in vitro receptor binding assays were obtained from transgenic CHO-K1 cells stably expressing hMC-R receptor subtypes 1, 3, 4 or 5. […] Competitive inhibition of [¹²⁵I](Tyr²)-(Nle⁴-D-Phe⁷)α-MSH ([¹²⁵I]-NDP-α-MSH, Amersham Biosciences®) binding was carried out in polypropylene 96 well plates. […] Binding data were analyzed by computer-assisted non-linear regression analysis (XL fit; IDBS).
Bridge positions count the residues as written; N and C are the ends. Square brackets hold non-standard residues; d marks the D form. Bta = N[C@@H](Cc1csc2ccccc12)C(=O)O; hCha = N[C@@H](CCC1CCCCC1)C(=O)O; Cha = N[C@@H](CC1CCCCC1)C(=O)O; Nle = CCCC[C@H](N)C(=O)O; Ava = NCCCCC(=O)O; GABA = NCCCC(=O)O
readout_type: pKi
Scale note: pKi = -log10(concentration in M).

Recorded result, Ac-[Nle]D[dA]H[dF]R[Bta]AK-NH2 (lactam 2-9) [Ac-Nle-c(Asp-D-Ala-His-D-Phe-Arg-Bal-Ala-Lys)-NH2] , pKi: 7.95

Recorded result, Ac-ICH[dF]RW[GABA]C-NH2 (disulfide 2-8; SMILES CC[C@H](C)[C@H](NC(C)=O)C(=O)N[C@H]1CSSC[C@@H](C(N)=O)NC(=O)CCCNC(=O)[C@H](Cc2c[nH]c3ccccc23)NC(=O)[C@H](CCCNC(=N)N)NC(=O)[C@@H](Cc2ccccc2)NC(=O)[C@H](Cc2c[nH]cn2)NC1=O) [Ac-Ile-c(Cys-His-D-Phe-Arg-Trp-Gaba-Cys)-NH2] , pKi: 9.37

Recorded result, Ac-[Nle]C[dA]H[dF]RW[Ava]C-NH2 (disulfide 2-9; SMILES CCCC[C@H](NC(C)=O)C(=O)N[C@H]1CSSC[C@@H](C(N)=O)NC(=O)CCCCNC(=O)[C@H](Cc2c[nH]c3ccccc23)NC(=O)[C@H](CCCNC(=N)N)NC(=O)[C@@H](Cc2ccccc2)NC(=O)[C@H](Cc2c[nH]cn2)NC(=O)[C@@H](C)NC1=O) [Ac-Nle-c(Cys-D-Ala-His-D-Phe-Arg-Trp-Apn-Cys)-NH2] , pKi: 6.07

Recorded result, Ac-[Cha]CH[dF]RW[GABA]C-NH2 (disulfide 2-8) [Ac-Cha-c(Cys-His-D-Phe-Arg-Trp-Gaba-Cys)-NH2] , pKi: 9.45

Recorded result, Ac-[hCha]DH[dF]RW[GABA]K-NH2 (lactam 2-8; SMILES CC(=O)N[C@@H](CCC1CCCCC1)C(=O)N[C@H]1CC(=O)NCCCC[C@@H](C(N)=O)NC(=O)CCCNC(=O)[C@H](Cc2c[nH]c3ccccc23)NC(=O)[C@H](CCCNC(=N)N)NC(=O)[C@@H](Cc2ccccc2)NC(=O)[C@H](Cc2c[nH]cn2)NC1=O) [Ac-hCha-c(Asp-His-D-Phe-Arg-Trp-Gaba-Lys)-NH2] , pKi: 6.13

Each recorded value in this set is attributed to patent US20120135923A1.
